Target: ErbB2 kinase (HER2) (Homo sapiens)
Sequence (P04626 23-1255): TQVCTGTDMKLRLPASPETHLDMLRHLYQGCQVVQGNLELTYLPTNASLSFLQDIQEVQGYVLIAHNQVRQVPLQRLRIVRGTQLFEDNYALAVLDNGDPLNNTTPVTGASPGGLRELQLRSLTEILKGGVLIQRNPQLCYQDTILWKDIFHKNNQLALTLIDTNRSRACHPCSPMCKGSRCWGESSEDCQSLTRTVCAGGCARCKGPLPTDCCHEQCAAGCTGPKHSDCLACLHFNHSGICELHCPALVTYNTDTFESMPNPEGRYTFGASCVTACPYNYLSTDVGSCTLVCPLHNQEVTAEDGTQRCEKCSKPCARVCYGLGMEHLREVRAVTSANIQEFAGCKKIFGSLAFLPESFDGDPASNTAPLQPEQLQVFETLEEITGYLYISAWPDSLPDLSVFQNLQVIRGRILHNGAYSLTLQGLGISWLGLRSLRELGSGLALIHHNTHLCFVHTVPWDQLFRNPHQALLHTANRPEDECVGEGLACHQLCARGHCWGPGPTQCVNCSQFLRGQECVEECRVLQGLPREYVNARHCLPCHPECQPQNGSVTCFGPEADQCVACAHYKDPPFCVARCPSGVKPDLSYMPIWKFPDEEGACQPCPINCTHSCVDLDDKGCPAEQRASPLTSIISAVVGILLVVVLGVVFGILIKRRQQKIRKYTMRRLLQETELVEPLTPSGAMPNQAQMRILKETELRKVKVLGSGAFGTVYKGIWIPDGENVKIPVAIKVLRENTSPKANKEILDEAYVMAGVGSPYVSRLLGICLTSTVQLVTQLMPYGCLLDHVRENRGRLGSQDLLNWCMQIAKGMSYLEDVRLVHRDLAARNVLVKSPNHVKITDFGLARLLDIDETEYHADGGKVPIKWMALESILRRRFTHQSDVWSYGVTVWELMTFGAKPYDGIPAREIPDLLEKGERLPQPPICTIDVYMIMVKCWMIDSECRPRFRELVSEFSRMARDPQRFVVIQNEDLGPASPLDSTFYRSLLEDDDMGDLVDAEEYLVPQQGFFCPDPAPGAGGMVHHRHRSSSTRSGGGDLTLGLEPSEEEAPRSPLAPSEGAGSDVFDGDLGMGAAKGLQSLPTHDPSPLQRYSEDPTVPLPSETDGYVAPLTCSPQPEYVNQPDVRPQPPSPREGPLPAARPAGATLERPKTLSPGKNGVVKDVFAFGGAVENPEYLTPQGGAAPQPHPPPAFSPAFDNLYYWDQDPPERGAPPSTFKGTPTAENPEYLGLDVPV
endpointLabel: IC50 (nM)
# unit: nM | format: bare number

Measured IC50 (ErbB2 kinase (HER2) (Homo sapiens)), entry CCOc1cc2ncnc(Nc3ccc(Oc4ccn5ncnc5c4)c(C)c3)c2cc1NC(=O)/C(F)=C/[C@H]1CCCN1C [Crystal form C] : 0.26
